System: HCC-2998 colon
ASSAY TEXT: NCI tumour cell line growth inhibition, 48 h
OBSERVED PROPERTY: TGI

{"COMPOUND": "ClCCCSSCCCCl", "MEASURED VALUE": "> 88.2 µM"}
{"COMPOUND": "C/C(=N\\Nc1nc2cc(Cl)ccc2s1)c1ccccn1", "MEASURED VALUE": "> 80.8 µM"}
{"COMPOUND": "c1coc(-c2nccc3c2[nH]c2ccccc23)c1", "MEASURED VALUE": "> 100 µM"}

Q) Recall the reported TGI of CC1(C)NC(=O)N(CCCCCCN2C(=O)NC(C)(C)C2=O)C1=O on HCC-2998 colon and write it down.
A) > 100 µM

Q) Fetch value of TGI on HCC-2998 colon for O=C(Cc1ccccc1[N+](=O)[O-])C(CO)c1ccccc1[N+](=O)[O-] (stereo unspecified) .
A) > 100 µM

Q) Return reported TGI for target or system HCC-2998 colon, item COC1=CC(c2ccc[nH]2)=N/C1=C\c1[nH]c(C)c(C(=O)CCC(=O)Oc2ccc3c(c2)CCC2C3CC[C@]3(C)[C@@H](O)CC[C@@H]23)c1C (stereo partly specified) .
A) > 100 µM

Q) Jot down TGI (HCC-2998 colon) of COc1ccc(-c2coc3cc(O)ccc3c2=O)cc1 .
A) > 100 µM

Q) Report the value of TGI obtained on HCC-2998 colon for O=c1c2c3c(sc2nc2n1N=CN(c1ccccc1)C2)CCCC3 .
A) > 100 µM

Q) Lab note: HCC-2998 colon assay, enter TGI for O=c1[nH]c(=O)c2ncn(-c3ccc([N+](=O)[O-])cn3)c2[nH]1 here
A) > 100 µM

Q) Give HCC-2998 colon TGI for the following compound: COc1cc2c(NCCCCCO)ncnc2c(OC)c1OC
A) > 100 µM

Q) Quote HCC-2998 colon TGI for entry CNS(=O)(=O)OCC1OC(n2cnc3cncnc32)C(O)C1O (stereo unspecified) .
A) > 100 µM

###

Test system: SK-OV-3 ovarian
ASSAY TEXT: NCI tumour cell line growth inhibition, 48 h; in the data active means GI50 below about 0.43 µM; inactive means the rest
Pick from active, inactive when you respond.

Use the examples below as a reference point.
{"MOL SMILES": "C/C(=N\\NC(=S)N1CCN(c2ccccn2)CC1)c1ccccn1", "QUALITATIVE LABEL": "active"}
{"MOL SMILES": "CNC(=O)c1nn(C)c2c1C(C)(C)Cc1cnc(Nc3cccc(N4CCN(C)CC4)c3)nc1-2", "QUALITATIVE LABEL": "active"}
{"MOL SMILES": "C/C(CCC(=O)O)=N/Nc1ccc([N+](=O)[O-])cc1", "QUALITATIVE LABEL": "inactive"}
{"MOL SMILES": "CCCCCCCCCCCCCC[n+]1ccccc1", "QUALITATIVE LABEL": "inactive"}
{"MOL SMILES": "COc1ccc(/C=C/C(=O)c2c(O)ccc3c(C)c(C(=O)O)oc23)cc1", "QUALITATIVE LABEL": "inactive"}

Q) Given COC(=O)c1cc(NC(=O)c2cc(NC(=O)c3cc([N+](=O)[O-])n(C)c3)cn2C)cn1C , state the outcome it received in this test.
A) inactive

Q) What did this assay record as the result for O=C([O][Hg][c]1ccccc1)c1ccccc1 ?
A) inactive

Q) // return assay outcome for Cc1ccc(F)c(NC(=O)Nc2ccc(-c3cccc4[nH]nc(N)c34)cc2)c1
A) inactive

Source listed as PubChem BioAssay (NCI).
